# Experiment notes: BET inhibitor-based combinations targeting novel dependencies in MECOM-rearranged (r) AML: HNT-34 cell line (AID 2202234); note: nearly all actives have a fitted effect of over 35% in size
# Measurement setup: HNT-34 AML viability, CellTiter-Glo luminescence, 48 h; series mostly up to 46 µM
Results filed as inconclusive are left out. Calls of active or inactive are those of the source. Calls come from the whole dose curve; as a rule, active = well fitted inhibition curve with a large enough effect; inconclusive = small, poorly fitted or top-dose-only effect; inactive = no such curve, though single readings can be large or run the other way.
Classes to choose from: true = active, false = inactive

Solved cases (5 shown):
compound=CCc1cc2c(c(OCC(F)(F)F)c(C(=O)NC3CCN(C(=O)CO)CC3)n2C)c(=O)n1CC(=O)c1ccccc1 assigned_class=true
compound=CCC[C@@H]1C[C@@H](C(=O)N[C@@H]([C@H]2O[C@H](SC)[C@H](O)[C@@H](O)[C@H]2O)[C@H](C)Cl)N(C)C1 assigned_class=false
compound=Cn1cc(-c2nc(N[C@@H]3CCCC[C@@H]3N)c(F)c3c2C(=O)NC3)cn1 assigned_class=true
compound=CNCCn1c(=O)c2cc(OC)c(OC)cc2c2cnc3cc4c(cc3c21)OCO4 assigned_class=true
compound="CC#Cc1cncc(-c2ccc3c(c2)[C@@]2(N=C(C)C(N)=N2)C2(CCC(OC)CC2)C3)c1 (some centres undefined)" assigned_class=false

Hi team, can someone confirm the assay call for `Cc1ccc(-c2ncc(Cl)cc2-c2ccc(S(C)(=O)=O)cc2)cn1` ? false

Same question for `Cn1ncc(NC(=O)c2nc(-c3c(F)cccc3F)sc2N)c1N1CC[C@@H](N)[C@H](F)CC1` please. true

`CN1C(=O)N(c2cc(Cl)cc(Cl)c2)C(=O)[C@]12CN(Cc1cc(C(=O)O)cs1)C[C@H]2c1ccc(C#N)cc1` , same question. false

Subsequent entry: `Cc1cc(O)c(-c2ccc([C@@H](C)CN)cc2)c2c1[nH]c(=O)c1sccc12` true

====

# Experiment notes: BET inhibitor-based combinations targeting novel dependencies in MECOM-rearranged (r) AML: AML-194 cell line (AID 2202237; note: nearly all actives have a fitted effect of over 40% in size)
# Measurement setup: AML-194 (MECOM-r AML) viability, CellTiter-Glo, 48 h; series mostly up to 46 µM
Inconclusive results are not listed. The source made the active and inactive calls. Calls come from the whole dose curve; as a rule, active = well fitted inhibition curve with a large enough effect; inconclusive = small, poorly fitted or top-dose-only effect; inactive = flat fitted curve, though single readings scatter. Non-standard residues stand in square brackets, D forms with d. Residues, ends and D or L forms follow the SMILES beside them. Dip = N[C@H](C(=O)O)C(c1ccccc1)c1ccccc1
Pick one: true (1) = active, false (0) = inactive

Reference set, count: 5
compound=C[C@@H]1CC(=O)Nc2cccc(-c3ccc4c(c3)c(-c3cnn(C)c3)nn4C)c2N1 assigned_class="true (1)"
compound=O=C1NC(=O)/C(=C\c2ccc(-c3ccc(F)cc3)o2)S1 assigned_class="false (0)"
compound="NCCCC[C@H](NC(=O)[C@@H](NC(=O)[C@H](Cc1c[nH]c2ccccc12)NC(=O)[C@H](CCCCN)NC(=O)[C@H](CCCCN)NC(=O)[C@H](Cc1c[nH]c2ccccc12)NC(=O)[C@H](Cc1c[nH]c2ccccc12)NC(=O)[C@H](CCCCN)NC(=O)[C@@H](N)CCCCN)C(c1ccccc1)c1ccccc1)C(N)=O (H-KKWWKKW[Dip]K-NH2)" assigned_class="false (0)"
compound=COc1cc2ncnc(Nc3cccc(Cl)c3F)c2cc1OC(=O)N1CCN(C)C[C@H]1C assigned_class="false (0)"
compound=COc1cc(Nc2cnc(C#N)c(O[C@H](C)CN(C)C)n2)ncc1-c1cnn(C)c1 assigned_class="true (1)"

Could you kindly confirm the outcome this assay logged for `Nc1cc(COc2c(Cl)cc(C[C@H](N)C(=O)O)cc2Cl)c2oc(-c3ccccc3)nc2c1` ? false (0)

And then `O=C1NC(=O)/C(=C/c2cccc(C(F)(F)F)c2)S1` , what is it? false (0)

Lookup `CCC[C@H](NC(=O)[C@@H]1[C@H]2CCC[C@H]2CN1C(=O)[C@@H](NC(=O)[C@@H](NC(=O)c1cnccn1)C1CCCCC1)C(C)(C)C)C(=O)C(=O)NC1CC1` false (0)

Now the compound `CC(C)(O)CC[C@@H](O)[C@](C)(O)[C@H]1CC[C@@]2(O)C3=CC(=O)[C@@H]4C[C@@H](O)[C@@H](O)C[C@]4(C)[C@H]3CC[C@]12C` false (0)

Same read-out for `CCC(=C/[C@H](C)C/C=C/C(C)=C/[C@@H](C)C(=O)[C@@H](C)[C@H](O)[C@@H](C)C/C(C)=C/C(=O)O)/C=C/[C@@H]1OC(=O)C=C[C@@H]1C` ? true (1)

Would you mind doing `CC1(C)O[C@@H]2C[C@H]3[C@@H]4CCC5=CC(=O)C=C[C@]5(C)[C@H]4[C@@H](O)C[C@]3(C)[C@]2(C(=O)CO)O1` as well? true (1)

For `c1ccc(CNCc2ccc(CN3CCCNCCNCCCNCC3)cc2)nc1` then? false (0)

Also `O=C(O)CNC(=O)c1nc(Cl)c2ccccc2c1O` , if possible. false (0)

Param item: `C[C@@H](OC[C@@]1(c2ccccc2)CC[C@]2(CCC(=O)N2)CN1)c1cc(C(F)(F)F)cc(C(F)(F)F)c1` true (1)

Moving on to the next compound: CC(C)(c1ccc(OCC(O)CO)cc1)c1ccc(OCC(O)CCl)cc1 (stereo not given) false (0)
